ASSAY_EXPLANATION: chemical genetic growth profiling, strain panel (AID 1159580);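 further: tested at 20 µM; growth read once vehicle control cultures reached saturation at 30 °C; 1 = growth at the plate median or of vehicle wells; lower values mean less growth of the strain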
TEST_PARAMETERS: S. cerevisiae deletion strains, growth OD, locus YOR083W, strain WHI5 (second series)
The campaign covered roughly 5,500 compounds. About 2,000 (36%) were called active. Inconclusive results (about 18%) are left out. No stated cut-off is given here; in the data, active means normalized growth mostly below about 0.91 (no sharp cut-off); inconclusive means no clear call, values can overlap the other calls; inactive means mostly above about 0.92. The list shows a part of the results.
Give one outcome, nothing more. List: active, inactive

CPD_SMILES | GROUP
O=C1Nc2ccc(I)cc2/C1=C/c1cc(Br)c(O)c(Br)c1 | active

query: Given "CNC(=O)[C@H]1O[C@@H](n2cnc3c(NCc4ccc(I)cc4)nc(Cl)nc32)[C@H](O)[C@@H]1O" , state the outcome it received in this test.
result: inactive

query: Entry "O=C1NC(c2cccc([N+](=O)[O-])c2)=CCN1c1ccccc1O" : call = ?
result: inactive

---

ASSAY_EXPLANATION: chemical genetic growth profiling, strain panel (AID 1159580)
TEST_PARAMETERS: S. cerevisiae deletion strains, growth OD, locus YNL248C, strain rpa49, hits give low values
Hit rate of the full screen: of about 5,500 compounds, about 2,000 (36%) were called active. Another 18% or so got no clear call; they are omitted. This is one part of the list.
MEASURED_PROPERTY: normalized growth
Give bare numbers.

Below, 5 compounds whose answers are already recorded.
COMPOUND | normalized growth
CCOC(=O)[C@H](CCc1ccccc1)N[C@@H](C)C(=O)N1Cc2ccccc2C[C@H]1C(=O)O | 0.957
C[C@@H](N)[C@@H](O)c1ccccc1 | 0.99
CC12CC3CC(C)(C1)CC(N)(C3)C2 | 0.961
Nc1ccn(C2O[C@H](CO)[C@@H](O)[C@H]2O)c(=O)n1 (stereo partly drawn) | 0.984
CSc1ccc2c(c1)N(CCC1CCCCN1C)c1ccccc1S2 (stereo not drawn) | 0.978

For every listed record, write down its normalized growth.
1. C[C@@H]1O[C@@H](O[C@H]2C[C@@H](O)[C@]3(CO)C4C(CC[C@]3(O)C2)[C@@]2(O)CC[C@H](C3=CC(=O)OC3)[C@@]2(C)C[C@H]4O)[C@H](O)[C@H](O)[C@H]1O (stereo partly drawn)
2. CC(CN(C)C)CN1c2ccccc2CCc2ccccc21 (stereo not drawn)
3. COC(=O)CCCOc1ccc(Cl)cc1Cl

result:
1. 0.985
2. 0.988
3. 0.964

---

Assignment: determine reported normalized growth for the given compounds.
ASSAY_EXPLANATION: chemical genetic growth profiling, strain panel (AID 1159580)
TEST_PARAMETERS: S. cerevisiae deletion strains, growth OD, locus YAL013W, strain DEP1, hits give low values
Among all 5,500 compounds or so, about 2,000 (36%) were called active. About 18% were inconclusive and are not listed. The list shows a part of the results.
One number for each entry.

Completed entries (count: 5):
CPD_SMILES | MEASURED_PROPERTY | RESULT_VALUE
Cc1cc(NS(=O)(=O)c2ccc(NS(=O)(=O)c3ccc(Cl)cc3)cc2)no1 | normalized growth | 1.03
COc1ccc(CCNC(=S)NCCc2ccc(OC)c(OC)c2)cc1OC | normalized growth | 0.998
Cn1nccc1NS(=O)(=O)c1cccc(Cl)c1 | normalized growth | 1.01
N[C@@H](CC(=O)O)C(=O)O | normalized growth | 1.01
N[C@@H](Cn1oc(=O)[nH]c1=O)C(=O)O | normalized growth | 1.01

Okay, here is my list. What is normalized growth for each of these?
1. O=c1c2cc(NS(=O)(=O)c3ccc(Cl)cc3)ccc2oc2ncccc12
2. COc1cc(CC/C(C)=N/O)ccc1OCc1ccc(Cl)cc1Cl
3. N[C@H](CCCCCP(=O)(O)O)C(=O)O
4. CN1C[C@H](CNC(=O)OCc2ccccc2)C[C@@H]2c3cccc4c3c(cn4C)C[C@H]21
5. Cc1c(S(=O)(=O)c2ccc(Cl)cc2)csc1C(=O)Nc1ccc(N2CCOCC2)c(Cl)c1
6. Cc1ccc(S(=O)(=O)Nc2ccc(C)c([N+](=O)[O-])c2)cc1

result:
1: 0.979; 2: 0.908; 3: 0.989; 4: 0.987; 5: 0.992; 6: 0.995

---

ASSAY_EXPLANATION: chemical genetic growth profiling, strain panel (AID 1159580);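 further: tested at 20 µM; growth read once vehicle control cultures reached saturation at 30 °C; 1 = growth at the plate median or of vehicle wells; lower values mean less growth of the strain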
TEST_PARAMETERS: S. cerevisiae deletion strains, growth OD, locus YLR268W, strain sec22, hits give low values
The whole screen tested about 5,500 compounds, of which about 2,000 (36%) were called active. Inconclusive results (about 18%) are left out. The list shows a part of the results.
MEASURED_PROPERTY: normalized growth
Give bare numbers.

Below are some molecules; for each one, tell me its normalized growth.
1. S=P(N1CC1)(N1CC1)N1CC1
2. CC(CCC(=O)O)[C@H]1CCC2C3C[C@H](O)[C@@H]4C[C@H](O)CC[C@]4(C)C3CC[C@@]21C (stereo not given in full)
3. CC(=O)Nc1nnc(S(N)(=O)=O)s1
4. COc1ccc(C(=O)N2CCCC2=O)cc1

result:
1. 0.989
2. 1.06
3. 0.895
4. 0.971

Lab note: each molecule below needs its normalized growth filled in.
1. N[C@@H]1[C@@H](O)[C@H](O)[C@@H](CO)O[C@H]1O
2. CC(CCC(=O)O)[C@H]1CCC2C3CC[C@@H]4C[C@H](O)CC[C@]4(C)C3CC[C@@]21C (stereo not given in full)
3. Cc1cc(O)c(C=O)c2c1C(=O)Oc1c(C)c(O)c3c(c1O2)C(O)OC3=O (stereo not given)
4. CC(C)CCCC(C)C1CCC2C3CC[C@H]4CCCC[C@]4(C)C3CC[C@]12C (stereo not given in full)
5. COc1cc(C(=O)O)c2c(c1C)OC(=O)c1c(C)cc(O)c(C=O)c1O2
6. Cc1cc(O)c(C=O)c2c1C(=O)Oc1c(COC(=O)/C=C/C(=O)O)c(O)c(C(=O)O)c(C)c1O2

result:
1.01
0.886
0.965
0.966
0.956
0.924

---

ASSAY_EXPLANATION: chemical genetic growth profiling, strain panel (AID 1159580);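 further: tested at 20 µM; growth read once vehicle control cultures reached saturation at 30 °C; 1 = growth at the plate median or of vehicle wells; lower values mean less growth of the strain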
TEST_PARAMETERS: S. cerevisiae deletion strains, growth OD, locus YNL153C, strain GIM3
Out of some 5,500 compounds screened, about 2,000 (36%) were called active. Roughly 18% stayed inconclusive and do not appear here. Cut-off read from the data, not from the text of the source: active = normalized growth mostly below about 0.91 (no sharp cut-off); inconclusive = no clear call, values can overlap the other calls; inactive = mostly above about 0.92. The list shows a part of the results.
Give one outcome, nothing more. List: True (active), False (inactive)

Reference set, count: 2
COMPOUND | GROUP
CCC(=O)c1c(C)c(C)c(C)c(C)c1C | False
C=C1C2CCC3(C)C(c4ccoc4)OC(=O)CC13OC1CC(OC(C)=O)C(C)(C)C(CC(=O)OC)C12C (stereo not given) | False

query: Test call, this compound: "O=c1cc(-c2ccccc2)oc2cc(O)c(O)c(O)c12"
result: True

query: Hi team, can someone confirm the assay call for CC(CN1c2ccccc2Sc2cccnc21)N(C)C (stereo not given) ?
result: False

query: Returns: the outcome recorded for CC(=O)OCC1=C(C(=O)O)N2C(=O)C(NC(=O)Cc3cccs3)C2SC1 (stereo not given) in this assay.
result: False

query: Identify the outcome logged in this assay for the compound shown: "C[C@]12N[C@H](Cc3ccccc31)c1ccccc12"
result: False

query: Record request — test call for CCC(=O)c1ccc2c(c1)N(CC(C)N(C)C)c1ccccc1S2 (stereo not given)
result: False

query: Please indicate how the test categorized C=C1C(C2(C)C=CC(=O)C(C)(C)C2CC(=O)OC)CC[C@@]2(C)[C@H](c3ccoc3)OC(=O)C3OC132 (stereo not given in full) .
result: False

query: Assay result, entry "C=C1[C@H]2CC[C@@]3(C)[C@H](c4ccoc4)OC(=O)C[C@]13O[C@H]1C[C@H](O)C(C)(C)[C@H](CC(=O)OC)[C@]12C" — outcome?
result: False

query: I would be grateful if you could indicate the recorded call for "O=C(Nc1ccccc1)Nc1ccc(C(F)(F)F)cc1Br" .
result: False

---

Answer each item with its documented normalized growth.
ASSAY_EXPLANATION: chemical genetic growth profiling, strain panel (AID 1159580);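 further: tested at 20 µM; growth read once vehicle control cultures reached saturation at 30 °C; 1 = growth at the plate median or of vehicle wells; lower values mean less growth of the strain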
TEST_PARAMETERS: S. cerevisiae deletion strains, growth OD, locus YNL006W, strain LST8, hits give low values
Hit rate of the full screen: of about 5,500 compounds, about 2,000 (36%) were called active. About 18% were inconclusive and are not listed. The list shows a part of the results.
Numbers only.

CPD_SMILES | MEASURED_PROPERTY | RESULT_VALUE
COc1cc(CC/C(C)=N\O)ccc1OCc1ccc(Cl)c(Cl)c1 | normalized growth | 0.975
CS(=O)(=O)c1sc(C(=O)Sc2ccc(Cl)cc2)c2c1C=CCC2 | normalized growth | 0.873
CC(C)(C)C(=O)/C(C#N)=C/c1c(Cl)cccc1Cl | normalized growth | 0.341
CSC(=NNc1ccccc1)NC(=O)c1c(Cl)cccc1Cl | normalized growth | 0.97
O=S(=O)(Nc1ccc(Oc2ccc(OC(F)(F)F)cc2)cc1)c1cccc(Cl)c1 | normalized growth | 0.98
O=C1/C(=C/c2cccs2)COc2ccccc21 | normalized growth | 0.916

For the 2 compounds below, give their normalized growth values.
1. O=[N+]([O-])c1ccc(-c2csc(Nc3ccncc3)n2)cc1
2. CS(=O)(=O)/C(C#N)=C/c1ccccc1OCc1c(Cl)cccc1Cl

result:
1: 0.994; 2: 0.973

Dear reader, for each entry below, please note its normalized growth.
1. COc1ccc(OC)c(-c2ccn[nH]2)c1OCc1ccccc1
2. N#Cc1ccc(NC(=O)Nc2cccc3ccccc23)cc1
3. O=C(CCn1c(=O)oc2ccccc21)Sc1ccc(C(F)(F)F)cc1

result:
1: 0.985; 2: 0.978; 3: 0.954

Reference source: PubChem BioAssay AID1159580
